Test system: NCI/ADR-RES ovarian
Experiment: NCI tumour cell line growth inhibition, 48 h
measured_endpoint: TGI (µM)
Numeric answer only, unit µM assumed.

O=C(Nc1ccc(-n2ccc3c(NC(=O)c4ccccc4)ncnc32)cc1)Nc1ccc(Cl)c(C(F)(F)F)c1; 8.55

Now examine the next entry.
-- ask Value wanted: TGI (NCI/ADR-RES ovarian) of entry O=[N+]([O-])c1ccc(CSc2c3ccccc3nc3ccccc23)cc1
-- reply 52.1

====

Tested on: 786-0 renal
Test: NCI tumour cell line growth inhibition, 48 h
Quick rule for you: TGI at 30 µM or higher means 1.0, lower means 0.0.

OCCNC(=S)Nc1ccc(-c2nc(N3C[C@H]4CC[C@@H](C3)O4)c3cccn3n2)cc1; 0.0

Kindly consider the entry below.
-- ask Is the recorded value of TGI equal to or greater than 30 µM for this compound? N=C(N)SC(c1ccccc1)c1ccccc1
-- reply 0.0
